- Test system: ACHN renal
- EXPERIMENT: NCI-60 one-dose screen, 48 h (100 = growth as untreated, 0 = no growth, -100 = all killed)
- TEST SETTINGS: 10 µM unless noted
Compounds without any hit were thinned out: in the full panel of roughly 83,000, 20% have a hit.
MEASURED PROPERTY: growth (%)

1) COC(=O)[C@H](Cc1ccccc1)NNC(=O)c1csc([C@@H](C[C@H](C(C)C)N(C)C(=O)[C@@H](NC(=O)[C@H]2CCCCN2C)C2CC2)OC(C)=O)n1	24.8
2) CC(CC1CCCCC1)NCc1ccccc1 (stereo not given)	96.1
3) O=C(CC1(O)C(=O)Nc2ccccc21)c1ccc(C(=O)NCC2CCC3(CC2)OOC2(CCCCC2)OO3)cc1 (stereo not given)	60.1
4) O=C(O)c1ccc([S-])cc1.[Au+].c1ccc(CN2[CH-]N(Cc3ccccc3)C(c3ccccc3)=C2c2ccccc2)cc1	-65.7
5) CCC1(C(C)C)C(=O)NC(=S)NC1=O	98.5

----------
- System: HCC-2998 colon
- EXPERIMENT: NCI-60 one-dose screen, 48 h (100 = growth as untreated, 0 = no growth, -100 = all killed)
- TEST SETTINGS: 10 µM unless noted
Compounds without any hit were thinned out: in the full panel of roughly 83,000, 20% have a hit.
growth reference
MEASURED PROPERTY: growth (%)

1) O=[N+]([O-])c1cnc[nH]1	102
2) CN1CCC(c2c[nH]c3ccccc23)C1 (stereo not given)	94.1
3) C[S+]1C=Cc2ccccc2C1c1ccc(Cl)cc1 (stereo not given)	103
4) O=C1NC(=O)C(=Cc2cn(C(=O)c3ccccc3)c3ccccc23)C(=O)N1	93.4
5) C[C@@H]1CCC2[C@@H](C)[C@H](OC(=O)CCC(=O)NCCNC(=O)Cc3cc(=O)oc4cc(N(C)C)ccc34)O[C@@H]3O[C@]4(C)CC[C@@H]1C23OO4 (stereo not given in full)	50.2

----------
- Tested on: SK-MEL-28 melanoma
- EXPERIMENT: NCI-60 one-dose screen, 48 h (100 = growth as untreated, 0 = no growth, -100 = all killed)
- TEST SETTINGS: 10 µM unless noted
The panel holds about 83,000 compounds, 20% with a hit somewhere; the sample as a whole holds those more often.
MEASURED PROPERTY: growth (%)

1. COC(=O)[C@@H](C)C[C@H](Cc1ccc(F)cc1)NC(=O)c1csc([C@@H](C[C@H](C(C)C)N(C)C(=O)[C@@H](NC(=O)[C@H]2CCCCN2C)C(C)C)OC(C)=O)n1	58.9
2. COC(=O)C1CCC(NC(=O)c2csc([C@@H](C[C@H](C(C)C)N(C)C(=O)[C@@H](NC(=O)[C@H]3CCCCN3C)C(C)C)OC(C)=O)n2)CC1 (some centres not stated)	60
3. COc1ccc(N(CC(=O)NCCC[Te]c2ccccc2)C(=O)CNC(=O)OC(C)(C)C)cc1	105
4. CC1=C(CCCOC(=O)CN)C2=C(C)C3(CC3)[C@@](C)(O)C(=O)C2=C1	115
5. COc1cc2c(c(OC)c1OC)-c1ccc([O-])c(=O)cc1[C@@H](NC(C)=O)CC2.COc1cc2c(c(OC)c1OC)-c1ccc([O-])c(=O)cc1[C@@H](NC(C)=O)CC2.[Cu+2]	48.5
6. CN[C@@]1(c2ccccc2Cl)CCCC[C@@H]1NCC1CCCO1 (some centres not stated)	101
7. Cn1cc(-c2csc(-c3cn(CCCCN4CCCCC4)c4ccc(F)cc34)n2)c2cccnc21	-78.2

----------
growth reference
- System: T-47D breast
- EXPERIMENT: NCI-60 one-dose screen, 48 h (100 = growth as untreated, 0 = no growth, -100 = all killed)
- TEST SETTINGS: 10 µM unless noted
Compounds without any hit were thinned out: in the full panel of roughly 83,000, 20% have a hit.
MEASURED PROPERTY: growth (%)

1. O=NN1CCCc2cccc(O)c21	77.2
2. O=C1CN=C(c2ccc(Cl)cc2)c2sccc2N1	95.3
3. CC1=C(CCCOC(=O)[C@H](N)CC(C)C)C2=C(C)C3(CC3)[C@@](C)(O)C(=O)C2=C1	5.21
4. O=C1C2C(C(=O)[N]1[Hg][c]1cccs1)C1(Cl)C(Cl)=C(Cl)C2(Cl)C1(Cl)Cl (configuration not stated)	-78.5
5. Clc1ccc(CSC(Cn2ccnc2)c2ccc(Cl)cc2Cl)cc1 (configuration not stated)	29.5
6. O=C(O)c1c(Cl)n(Cc2ccc(O)cc2)c2ccc(O)cc12	118
7. CN1CCC(c2c[nH]c3ccccc23)C1 (configuration not stated)	97
8. Cc1c2cc(Cl)c3ccccc3c2c[n+]2ccccc12	-27.4
9. COc1cccc2c1c(C(=O)C(=O)Nc1ccn[nH]1)cn2Cc1ccc(F)cc1	104
10. CC(C)COC(C[N+](=O)[O-])C(Cl)(Cl)Cl (configuration not stated)	111
11. CC(C)OC(=O)[C@H](C)NP(=O)(Oc1ccccc1)C1CCCN(O)C1=O (some centres not stated)	94.5
12. O=C1C2CC=CCC2C(=O)N1SC(Cl)(Cl)Cl (configuration not stated)	46.3
13. CN1CC(CNC(=O)OCc2ccccc2)CC2c3cccc4c3c(cn4C)CC21 (configuration not stated)	31.6
14. CC1CN1CCCCN1CC1C (configuration not stated)	101
15. CC(C)=CC1C(C(=O)OCc2cccc(Oc3ccccc3)c2)C1(C)C (configuration not stated)	81.5
16. O=C1NC(=O)C(=Cc2cn(C(=O)c3ccccc3)c3ccccc23)C(=O)N1	95.2
17. CC(=O)[O][Hg][c]1c(N)c(C)cc(C)c1F	-20
18. CCCCN1CCCC[C@@H]1C(=O)N[C@H](C(=O)N(C)[C@H](CCc1nc(C(=O)N[C@@H](Cc2ccccc2)C[C@H](C)C(=O)OC)cs1)C(C)C)[C@@H](C)CC	44.2
19. COc1cc2c(cc1OCCCCn1c(-c3cccs3)nc3ccccc31)N=C[C@@H]1CCCN1C2=O	5.95
20. COC(=O)[C@@]1(C)CC[C@]2(C)CC[C@]3(C)C4=CC=C5C(=CC(=O)C(O)=C5C)[C@]4(C)CC[C@@]3(C)[C@@H]2C1	-57.1
21. COC(=O)[C@@H](C)C[C@H](Cc1ccccc1)NC(=O)c1csc([C@@H](C[C@H](C(C)C)N(C)C(=O)C2(NC(=O)[C@H]3CCCCN3C)CC2)OC(C)=O)n1	51.5
22. C/C(=C\c1ccn(-c2ccc(N)cc2C(F)(F)F)n1)[C@@H]1C[C@@H]2O[C@]2(C)CCC[C@H](C)[C@H](O)[C@@H](C)C(=O)C(C)(C)[C@@H](O)CC(=O)O1	39.1
23. CCCCN(CCCC)P(=O)(Oc1ccccc1)Oc1ccccc1	47.4
24. C[C@@]1(CCCCCCCCCc2ccc(O)cc2)C[C@]2(C)OC(=O)C[C@@H]2OO1	83.9
25. CCCCOc1ccc(C(N)Cc2ccccc2)cc1 (configuration not stated)	92.5
26. C[N+]12CN3CN(CN(C3)C1)C2	93
27. C[C@]12CCc3sc(NCCc4ccccc4)nc3C1=CC[C@@H]1[C@@H]2CC[C@]2(C)C(=O)CC[C@@H]12	75.2

----------
growth reference
- Tested on: HCT-15 colon
- EXPERIMENT: NCI-60 one-dose screen, 48 h (100 = growth as untreated, 0 = no growth, -100 = all killed)
- TEST SETTINGS: 10 µM unless noted
This is part of a sample that, as a whole, favours compounds with a hit. Of some 83,000 tested, about 20% had one in any assay.
MEASURED PROPERTY: growth (%)

1) CNC(=O)Oc1cccc(C(F)(F)F)c1	117
2) COC(=O)[C@H](Cc1c[nH]c2ccccc12)NC(=O)[C@@H](OC)[C@@H]1Cc2cc3cc(OC4CC(OC5CC(O)C(O)C(C)O5)C(O)C(C)O4)c(C)c(O)c3c(O)c2C(=O)[C@H]1OC1CC(OC2CC(OC3CC(C)(O)C(O)C(C)O3)C(O)C(C)O2)C(O)C(C)O1 (some centres not stated)	15.9
3) C1CCC2(CC1)OOCNCOO2	99.3
4) CC1=C(O)[C@@](C)(CCCCC[C@H](C)CCCCc2ccc(O)cc2)OOC1=O	98.3
5) O=C(CC1(O)C(=O)N(Cc2ccccc2)c2ccc(Cl)cc21)c1ccc(C(=O)NCC2CCC3(CC2)OOC2(CCCCC2)OO3)cc1 (configuration not stated)	-14.1
6) CC[C@H](C)[C@H](NC(=O)[C@H]1CCCCN1C)C(=O)N(C)[C@H](C[C@@H](OC(C)=O)c1cccc(C(=O)N[C@@H](Cc2ccccc2)C[C@H](C)C(=O)O)n1)C(C)C	9.38
7) O=C(CC1(O)C(=O)Nc2ccc(Cl)cc21)c1ccc(C(=O)NCC2CCC3(CC2)OOC2(CCCCC2)OO3)cc1 (configuration not stated)	49.1
